Values from patent US12059472B2

# TEST DETAILS: Caco-2 flux assay for cell permeability
# Format: in vitro ADME
# APPLIED CONDITIONS: human; Caco-2, basal to apical, 2 hours
QUANTITY: Papp B→A at 2 h

[[record]]
compound = "CC(C)(C)[C@H](c1cc(-c2cc(F)ccc2F)cn1Cc1ccccc1)N(CC[C@H](N)C(=O)NCCC(=O)N[C@H](CCC(=O)O)C(=O)O)C(=O)CO [Example M3]"
quantity = "Papp B→A at 2 h"
result = "0.27 ×10⁻⁶ cm/s"


====

# Tested on: KPL4: human breast cancer cell line
# TEST DETAILS: Cytotoxic effect on KPL4 cells (MTT assay)
# Format: cell-based
# APPLIED CONDITIONS: Table 2, active metabolites
QUANTITY: IC50 (nM)

[[record]]
compound = "CC(C)(C)[C@H](c1cc(-c2cc(F)ccc2F)cn1Cc1ccccc1)N(CC[C@H](N)C(=O)NCCC(=O)N[C@H](CCC(=O)O)C(=O)O)C(=O)CO [Example M3]"
system_name = "KPL4: human breast cancer cell line"
quantity = "IC50"
u = "nM"
readout_number = 173

